Quick reference for Time among some molecules
System: Rattus norvegicus
Assay: Sedative activity in Sprague-Dawley rat assessed as duration time at 2 times of EC50 administered as bolus dose
Type: functional
property: Time (s)

[
  {
    "molecule": "COC(=O)n1cnc([C@@H](C)c2cccc(C)c2C)c1.Cl",
    "property": "Time",
    "unit": "s",
    "meas value": 2018.2
  },
  {
    "molecule": "Cc1cccc([C@H](C)c2cn(COC(=O)C3CCC3)cn2)c1C.Cl",
    "property": "Time",
    "unit": "s",
    "meas value": 2841.2
  },
  {
    "molecule": "Cc1cccc([C@H](C)c2cnc[nH]2)c1C [DEXMEDETOMIDINE]",
    "property": "Time",
    "unit": "s",
    "meas value": 3312
  },
  {
    "molecule": "CCOC(=O)COC(=O)OCn1cnc([C@@H](C)c2cccc(C)c2C)c1.Cl",
    "property": "Time",
    "unit": "s",
    "meas value": 3177.7
  },
  {
    "molecule": "Cc1cccc([C@H](C)c2cn(C(=O)OCC(C)C)cn2)c1C.Cl",
    "property": "Time",
    "unit": "s",
    "meas value": 2802.9
  },
  {
    "molecule": "Cc1cccc([C@H](C)c2cn(COC(=O)c3ccccc3)cn2)c1C.Cl",
    "property": "Time",
    "unit": "s",
    "meas value": 4457.7
  },
  {
    "molecule": "Cc1cccc([C@H](C)c2cn(COC(=O)C(C)(C)C)cn2)c1C.Cl",
    "property": "Time",
    "unit": "s",
    "meas value": 3091.8
  },
  {
    "molecule": "COC(=O)COC(=O)OCn1cnc([C@@H](C)c2cccc(C)c2C)c1.Cl",
    "property": "Time",
    "unit": "s",
    "meas value": 3795.2
  },
  {
    "molecule": "Cc1cccc([C@H](C)c2cncn2COP(=O)([O-])[O-])c1C.[Na+].[Na+]",
    "property": "Time",
    "unit": "s",
    "meas value": 3966.6
  },
  {
    "molecule": "Cc1cccc([C@H](C)c2cn(COC(=O)OC3CC3)cn2)c1C.Cl",
    "property": "Time",
    "unit": "s",
    "meas value": 2795.7
  },
  {
    "molecule": "Cc1cccc([C@H](C)c2cn(COC(=O)C3CC3)cn2)c1C.Cl",
    "property": "Time",
    "unit": "s",
    "meas value": 2410
  },
  {
    "molecule": "COC(=O)CCC(=O)OCn1cnc([C@@H](C)c2cccc(C)c2C)c1.Cl",
    "property": "Time",
    "unit": "s",
    "meas value": 2733.9
  },
  {
    "molecule": "CCCC(=O)OCn1cnc([C@@H](C)c2cccc(C)c2C)c1.Cl",
    "property": "Time",
    "unit": "s",
    "meas value": 1941.9
  },
  {
    "molecule": "Cc1cccc([C@H](C)c2cn(COC(=O)OC(C)C)cn2)c1C.Cl",
    "property": "Time",
    "unit": "s",
    "meas value": 2458.7
  },
  {
    "molecule": "CCCOC(=O)n1cnc([C@@H](C)c2cccc(C)c2C)c1",
    "property": "Time",
    "unit": "s",
    "meas value": 2605.7
  },
  {
    "molecule": "Cc1cccc([C@H](C)c2cn(COC(=O)C(C)C)cn2)c1C.Cl",
    "property": "Time",
    "unit": "s",
    "meas value": 3798.6
  },
  {
    "molecule": "CCOC(=O)n1cnc([C@@H](C)c2cccc(C)c2C)c1.Cl",
    "property": "Time",
    "unit": "s",
    "meas value": 1971.4
  },
  {
    "molecule": "CC(=O)OC(C)n1cnc([C@@H](C)c2cccc(C)c2C)c1.Cl (stereo partly drawn)",
    "property": "Time",
    "unit": "s",
    "meas value": 2274.1
  }
]
